Test system: TE-15 (Esophageal Squamous Cell Carcinoma);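 also: after 72 h of two-drug dosing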
test.method.notes: Bliss excess, mean over the matrix (fraction); higher = more synergy
// reported Bliss excess for each item listed
observed.property: Bliss excess

INSERT INTO measurements (molecule, reported_value) VALUES
  ('Cc1cc2ncnn2cc1Nc1ncc2c(n1)n(C1CCOCC1)c(=O)n2C [AZD7648] + C=CCn1c(=O)c2cnc(Nc3ccc(N4CCN(C)CC4)cc3)nc2n1-c1cccc(C(C)(C)O)n1 [AZD1775] (first compound max 10 µM, partner max 1 µM)', 0.0223),
  ('C=CCn1c(=O)c2cnc(Nc3ccc(N4CCN(C)CC4)cc3)nc2n1-c1cccc(C(C)(C)O)n1 [AZD1775] + C1CN(CCC1(C(=O)N[C@@H](CCO)C2=CC=C(C=C2)Cl)N)C3=NC=NC4=C3C=CN4 [Capivasertib] (first compound max 3 µM, partner max 3 µM)', 0.0494),
  ('Cc1cc2ncnn2cc1Nc1ncc2c(n1)n(C1CCOCC1)c(=O)n2C [AZD7648] + CN(C)CCCOc1ccc(-c2ccc3ncc4c(c3c2)n(C2CCOCC2)c(=O)n4C)cn1 [AZD0156] (first compound max 10 µM, 7x7, partner max 1 µM)', -0.0383),
  ('C=CCn1c(=O)c2cnc(Nc3ccc(N4CCN(C)CC4)cc3)nc2n1-c1cccc(C(C)(C)O)n1 [AZD1775] + Nc1ccn([C@@H]2O[C@H](CO)[C@@H](O)C2(F)F)c(=O)n1 [Gemcitabine] (first compound max 1 µM, partner max 0.3 µM)', 0.042);

Sourced from the supplement of paper PMC11061612
